assay: Cytotoxicity against human A2780 cells measured after 96 hrs by SRB assay; type: functional, cell-based; settings: A2780, 96 h
ASSAY_ENDPOINT: pEC50
Please report pEC50 as the negative decimal logarithm of the molar concentration, giving only the number.

Solved cases below.
>  <SMILES_CODE>
CC(=O)O[C@H]1C[C@]2(C)[C@H]3CC=C4[C@@H]5CC(C)(C)CC[C@]5(C(=O)Nc5cnc6ccccc6c5)CC[C@@]4(C)[C@]3(C)CC[C@H]2C(C)(C)[C@H]1OC(C)=O

>  <VALUE_OBSERVED>
5.66

$$$$
>  <SMILES_CODE>
CC(=O)O[C@H]1C[C@]2(C)[C@H]3CC=C4[C@@H]5CC(C)(C)CC[C@]5(C(=O)Nc5ccncc5)CC[C@@]4(C)[C@]3(C)CC[C@H]2C(C)(C)[C@H]1OC(C)=O

>  <VALUE_OBSERVED>
5.80

$$$$
>  <SMILES_CODE>
CC(=O)O[C@H]1C[C@]2(C)[C@H]3CC=C4[C@@H]5CC(C)(C)CC[C@]5(C(=O)Nc5cncc6ccccc56)CC[C@@]4(C)[C@]3(C)CC[C@H]2C(C)(C)[C@H]1OC(C)=O

>  <VALUE_OBSERVED>
5.92

$$$$

[in] Consider the compound shown here: CC(=O)OC[C@@]1(C)[C@@H]2CC[C@]3(C)[C@H](CC=C4[C@@H]5[C@@H](C)[C@H](C)CC[C@]5(C(=O)Nc5cncc6ccccc56)CC[C@]43C)[C@@]2(C)C[C@@H](OC(C)=O)[C@@H]1OC(C)=O What is its recorded pEC50?
[out] 7.10

[in] Quick one: pEC50 for CC(=O)O[C@H]1C[C@]2(C)[C@H]3CC=C4[C@@H]5[C@@H](C)[C@H](C)CC[C@]5(C(=O)Nc5cccc6cccnc56)CC[C@@]4(C)[C@]3(C)CC[C@H]2C(C)(C)[C@H]1OC(C)=O ?
[out] 5.17

Value source: ChEMBL document CHEMBL3865812
